# EXPERIMENTAL SYSTEM: mouse V1a receptor (Mus musculus, UniProt Q62463)
# Sequence (Q62463 whole entry): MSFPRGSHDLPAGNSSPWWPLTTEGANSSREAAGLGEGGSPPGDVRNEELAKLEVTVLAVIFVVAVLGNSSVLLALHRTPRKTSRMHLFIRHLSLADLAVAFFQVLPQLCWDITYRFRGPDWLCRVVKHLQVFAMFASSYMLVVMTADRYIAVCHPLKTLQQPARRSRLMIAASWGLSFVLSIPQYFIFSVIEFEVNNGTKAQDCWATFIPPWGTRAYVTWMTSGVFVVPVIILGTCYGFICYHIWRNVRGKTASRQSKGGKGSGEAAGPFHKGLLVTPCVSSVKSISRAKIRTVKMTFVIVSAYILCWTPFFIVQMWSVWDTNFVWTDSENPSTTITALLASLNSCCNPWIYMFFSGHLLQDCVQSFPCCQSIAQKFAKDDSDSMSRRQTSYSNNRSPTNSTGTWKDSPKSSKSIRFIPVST
# ASSAY PROTOCOL: Functional V1a in vivo test: inhibition of oxytocin-induced scratching behaviour
# CONDITION INFO: mice, 10 mg/kg p.o. pretreatment
PROPERTY MEASURED: inhibition (%) of oxytocin-induced scratching behaviour response
Unit % implied. Number only.

Example entries begin here.
Brc1ccc2c(c1)CC1(Cc3nnc([C@H]4CC[C@H](Oc5ccccn5)CC4)n3-2)OCCO1 :: 99
CO[C@]1(C)CC[C@@H](c2nnc3n2-c2ccc(Cl)cc2CC2(C3)OCCO2)CC1 :: 41
Fc1ccc2c(c1)CC1(Cc3nnc([C@H]4CC[C@H](Oc5ccccn5)CC4)n3-2)OCCO1 :: 49

Here's the next entry for you.
Specify inhibition (%) of oxytocin-induced scratching behaviour response for O[C@H]1Cc2cc(Cl)ccc2-n2c(nnc2[C@H]2CC[C@H](Oc3ccccn3)CC2)C1 and stop.
92

###

# EXPERIMENTAL SYSTEM: human vasopressin V1a receptor (Homo sapiens, UniProt P37288)
# Sequence (P37288 whole entry): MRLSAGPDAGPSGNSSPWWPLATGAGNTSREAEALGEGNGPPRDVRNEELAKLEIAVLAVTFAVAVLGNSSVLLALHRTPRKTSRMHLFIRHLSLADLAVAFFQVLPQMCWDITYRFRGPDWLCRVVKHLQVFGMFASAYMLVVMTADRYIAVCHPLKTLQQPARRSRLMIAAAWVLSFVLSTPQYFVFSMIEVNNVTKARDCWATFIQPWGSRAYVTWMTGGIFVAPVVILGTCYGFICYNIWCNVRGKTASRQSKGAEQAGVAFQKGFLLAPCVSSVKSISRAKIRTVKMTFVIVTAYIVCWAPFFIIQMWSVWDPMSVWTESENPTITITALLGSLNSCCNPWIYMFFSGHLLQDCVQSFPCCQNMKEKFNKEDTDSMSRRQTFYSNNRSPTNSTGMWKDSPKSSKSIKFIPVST
# ASSAY PROTOCOL: Human vasopressin V1a receptor binding assay
# CONDITION INFO: 1321N1 cell membranes, [3H]vasopressin; read-out: Ki (nM) on hV1a cell line
I'd appreciate it if you marked entries t when Ki is lower than 0.4 nM and f when it is not.

Quick check: does COc1ccc2c(c1)CC(NC(C)C)Cc1nnc([C@H]3CC[C@H](Oc4ccccn4)CC3)n1-2 (stereo partly drawn) have Ki under 0.4 nM?
f

Determine whether this molecule shows Ki lower than 0.4 nM (ties excluded): Clc1ccc2c(c1)CC1(Cc3nnc([C@H]4CC[C@H](Oc5ccccn5)CC4)n3-2)OCCCO1
t

Regarding O=C(N[C@H]1Cc2cc(Cl)ccc2-n2c(nnc2[C@H]2CC[C@H](Oc3ccccn3)CC2)C1)C(F)(F)F , kindly confirm whether its Ki is beneath 0.4 nM.
f

For O=C1Cc2cc(Cl)ccc2-n2c(nnc2[C@H]2CC[C@H](Oc3ccccn3)CC2)C1 , is the recorded Ki below the cut-off of 0.4 nM?
f

Does the reported Ki of the following molecule sit strictly below 0.4 nM? CCOC1Cc2cc(Cl)ccc2-n2c(nnc2[C@H]2CC[C@H](Oc3ccccn3)CC2)C1 (stereo partly drawn)
t

Just wondering, is Ki of C#CCN(C)[C@H]1Cc2cc(Cl)ccc2-n2c(nnc2[C@H]2CC[C@H](Oc3ccccn3)CC2)C1 below 0.4 nM?
t

###

# EXPERIMENTAL SYSTEM: human vasopressin V1a receptor (Homo sapiens)
# ASSAY PROTOCOL: Human vasopressin V1a receptor binding assay
# CONDITION INFO: 1321N1 cell membranes, [3H]vasopressin; read-out: Ki (nM) on hV1a cell line
Param label: returns fulfilled when Ki < 0.4 nM, returns not fulfilled otherwise, including exact equality.

See these solved cases before continuing.
O=C1Cc2ccccc2-n2c(nnc2[C@H]2CC[C@H](Oc3ccccn3)CC2)C1 :: not fulfilled
O[C@H]1Cc2cc(Cl)ccc2-n2c(nnc2[C@H]2CC[C@H](Oc3ccccn3)CC2)C1 :: fulfilled
CCO[C@]1(CC)CC[C@@H](c2nnc3n2-c2ccc(Cl)cc2CC(NC(C)C)C3)CC1 (some centres unmarked) :: not fulfilled
Clc1ccc2c(c1)C[C@H](N1CCOCC1)Cc1nnc([C@H]3CC[C@H](Oc4ccccn4)CC3)n1-2 :: not fulfilled

Input COC1Cc2cc(Cl)ccc2-n2c(nnc2[C@H]2CC[C@H](N3CCOCC3)CC2)C1 (some centres unmarked) ; condition: Ki strictly below 0.4 nM. Does it hold?
not fulfilled

Is Ki strictly under 0.4 nM for the entry FC1Cc2cc(Cl)ccc2-n2c(nnc2[C@H]2CC[C@H](Oc3ccccn3)CC2)C1 (some centres unmarked) ?
fulfilled

In plain terms, does CC(C)NC1Cc2cc(Br)ccc2-n2c(nnc2[C@H]2CC[C@H](C(F)(F)F)CC2)C1 (some centres unmarked) come in under 0.4 nM for Ki?
not fulfilled
